Target sequence: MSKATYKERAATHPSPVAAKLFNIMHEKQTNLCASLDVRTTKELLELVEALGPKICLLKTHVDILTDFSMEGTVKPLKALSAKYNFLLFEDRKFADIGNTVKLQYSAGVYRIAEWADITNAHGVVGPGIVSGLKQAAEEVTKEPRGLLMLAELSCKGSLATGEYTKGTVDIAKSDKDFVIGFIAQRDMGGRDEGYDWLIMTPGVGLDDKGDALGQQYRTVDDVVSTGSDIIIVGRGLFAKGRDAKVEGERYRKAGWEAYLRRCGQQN
recorded_endpoint: Ki (nM)
Your answer should be a plain number; it is taken to be in nM.

Look up Ki for this compound: O=c1cnn([C@@H]2O[C@H](COP(=O)(O)O)[C@@H](O)[C@H]2O)c(=O)[nH]1 [6-AZA-URIDINE MONOPHOSPHATE]
64
